Target: B^0AT1 (Homo sapiens)
Construct: expressed in transfected cells
Sequence (Q695T7 1-634): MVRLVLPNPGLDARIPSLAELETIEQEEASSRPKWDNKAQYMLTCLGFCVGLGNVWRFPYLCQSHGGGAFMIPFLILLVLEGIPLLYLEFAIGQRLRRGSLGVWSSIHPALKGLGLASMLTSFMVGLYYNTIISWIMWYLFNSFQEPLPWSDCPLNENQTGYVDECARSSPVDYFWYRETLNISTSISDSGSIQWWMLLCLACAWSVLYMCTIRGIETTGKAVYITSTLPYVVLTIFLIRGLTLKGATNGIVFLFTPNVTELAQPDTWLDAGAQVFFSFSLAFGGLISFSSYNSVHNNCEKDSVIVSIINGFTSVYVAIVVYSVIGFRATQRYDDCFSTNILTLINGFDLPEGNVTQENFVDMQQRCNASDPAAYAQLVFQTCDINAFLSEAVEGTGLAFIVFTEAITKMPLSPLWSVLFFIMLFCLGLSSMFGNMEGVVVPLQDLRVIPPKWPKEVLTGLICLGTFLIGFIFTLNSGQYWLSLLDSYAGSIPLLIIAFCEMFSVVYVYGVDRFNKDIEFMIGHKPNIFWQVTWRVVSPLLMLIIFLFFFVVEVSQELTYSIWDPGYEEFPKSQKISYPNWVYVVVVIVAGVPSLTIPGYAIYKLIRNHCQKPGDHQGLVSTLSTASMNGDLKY
Sequence (Q9HBJ8 15-222 partner): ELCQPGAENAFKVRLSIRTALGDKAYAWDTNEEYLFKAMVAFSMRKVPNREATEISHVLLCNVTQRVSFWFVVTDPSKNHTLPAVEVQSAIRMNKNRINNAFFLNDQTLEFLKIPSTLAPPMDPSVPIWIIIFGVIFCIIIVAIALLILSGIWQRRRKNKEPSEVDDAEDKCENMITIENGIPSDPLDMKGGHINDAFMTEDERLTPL
Assay: Radioactive flux assay (radiolabelled leucine/isoleucine uptake) in CHO-BC cells
Format: cell-based
Conditions: 150 μM [14C]leucine or [14C]isoleucine, 6 min, 37°C
reported-property: pIC50
In plain terms, pIC50 is the concentration in mol/L turned into minus its base-10 logarithm.

Problem: Reported pIC50, molecule COc1ccc(C(CCCN2CCOCC2)c2ccc3c(c2)OCO3)cc1 (stereo not shown) : ____
Result: 4.47

Problem: And the next one, CN1[C@@H]2CC[C@H]1C[C@@H](OC(c1ccccc1)c1ccccc1)C2 [Benztropin, benztropine, reference compound] ?
Result: 4.15

Problem: And the next one, c1ccc(CCCN2CCCCC2Cc2ccccc2)cc1 (stereo not shown) [NSC22789, reference compound] ?
Result: 4.11

Problem: And the next one, COc1ccccc1Nc1nc2ccccc2s1 ?
Result: 5.47

###

Target: B^0AT1 (Mus musculus)
Construct: from tissue; host or cells: small intestine of C57/BL6J female mice, inverted 1 cm sections
Sequence (Q9D687 whole entry): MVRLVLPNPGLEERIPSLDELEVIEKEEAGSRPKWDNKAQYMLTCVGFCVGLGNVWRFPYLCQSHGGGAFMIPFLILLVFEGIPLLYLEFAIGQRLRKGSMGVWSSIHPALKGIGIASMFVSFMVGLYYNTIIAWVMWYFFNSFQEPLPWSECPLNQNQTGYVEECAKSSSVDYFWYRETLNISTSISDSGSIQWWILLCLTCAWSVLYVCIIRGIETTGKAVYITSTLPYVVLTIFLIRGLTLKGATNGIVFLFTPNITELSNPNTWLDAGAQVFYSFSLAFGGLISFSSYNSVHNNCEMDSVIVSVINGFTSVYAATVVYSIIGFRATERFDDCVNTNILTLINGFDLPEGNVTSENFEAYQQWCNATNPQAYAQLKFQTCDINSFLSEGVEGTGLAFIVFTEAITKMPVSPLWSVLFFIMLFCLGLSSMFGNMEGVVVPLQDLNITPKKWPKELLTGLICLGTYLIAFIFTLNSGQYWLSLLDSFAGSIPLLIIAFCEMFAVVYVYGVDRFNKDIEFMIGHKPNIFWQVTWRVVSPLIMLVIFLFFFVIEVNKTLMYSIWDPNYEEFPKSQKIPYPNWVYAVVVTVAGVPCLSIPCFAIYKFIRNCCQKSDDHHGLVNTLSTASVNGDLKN
Sequence (Q8R0I0 18-805 partner): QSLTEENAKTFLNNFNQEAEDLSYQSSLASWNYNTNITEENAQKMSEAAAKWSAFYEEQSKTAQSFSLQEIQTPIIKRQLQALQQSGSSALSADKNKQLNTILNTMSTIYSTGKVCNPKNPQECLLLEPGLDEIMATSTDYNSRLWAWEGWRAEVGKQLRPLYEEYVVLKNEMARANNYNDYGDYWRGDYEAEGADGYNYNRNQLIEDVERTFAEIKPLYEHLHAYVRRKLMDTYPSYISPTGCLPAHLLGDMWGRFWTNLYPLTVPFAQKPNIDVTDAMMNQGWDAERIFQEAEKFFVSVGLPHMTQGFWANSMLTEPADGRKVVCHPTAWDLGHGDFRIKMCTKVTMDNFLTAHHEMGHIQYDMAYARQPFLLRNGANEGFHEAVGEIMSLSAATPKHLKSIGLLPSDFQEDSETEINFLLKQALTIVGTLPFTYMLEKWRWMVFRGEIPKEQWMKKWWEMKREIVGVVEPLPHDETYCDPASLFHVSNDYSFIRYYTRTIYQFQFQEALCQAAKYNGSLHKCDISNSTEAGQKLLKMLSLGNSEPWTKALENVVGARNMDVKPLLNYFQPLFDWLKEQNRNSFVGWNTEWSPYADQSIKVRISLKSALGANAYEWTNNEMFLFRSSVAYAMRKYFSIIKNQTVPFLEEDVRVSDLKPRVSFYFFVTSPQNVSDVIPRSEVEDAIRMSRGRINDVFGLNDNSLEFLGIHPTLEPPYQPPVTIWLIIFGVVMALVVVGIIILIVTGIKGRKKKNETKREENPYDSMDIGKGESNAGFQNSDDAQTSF
Test: Na+-dependent leucine uptake in inverted sections of mouse intestine
Details: 50 μM inhibitor, 150 μM [14C]leucine
reported-property: Inhibition of Na+-dependent leucine uptake (B^0AT1) ex vivo

{"smiles": "COc1ccccc1Nc1nc2ccccc2s1", "value-measured": "more potent"}
{"smiles": "Cc1cc(C(=O)Nc2ccc(Cl)cc2C(F)(F)F)no1", "value-measured": "more potent"}

###

Molecular target: B^0AT1 (Homo sapiens)
Construct: expressed in transfected cells
Sequence (Q695T7 1-634): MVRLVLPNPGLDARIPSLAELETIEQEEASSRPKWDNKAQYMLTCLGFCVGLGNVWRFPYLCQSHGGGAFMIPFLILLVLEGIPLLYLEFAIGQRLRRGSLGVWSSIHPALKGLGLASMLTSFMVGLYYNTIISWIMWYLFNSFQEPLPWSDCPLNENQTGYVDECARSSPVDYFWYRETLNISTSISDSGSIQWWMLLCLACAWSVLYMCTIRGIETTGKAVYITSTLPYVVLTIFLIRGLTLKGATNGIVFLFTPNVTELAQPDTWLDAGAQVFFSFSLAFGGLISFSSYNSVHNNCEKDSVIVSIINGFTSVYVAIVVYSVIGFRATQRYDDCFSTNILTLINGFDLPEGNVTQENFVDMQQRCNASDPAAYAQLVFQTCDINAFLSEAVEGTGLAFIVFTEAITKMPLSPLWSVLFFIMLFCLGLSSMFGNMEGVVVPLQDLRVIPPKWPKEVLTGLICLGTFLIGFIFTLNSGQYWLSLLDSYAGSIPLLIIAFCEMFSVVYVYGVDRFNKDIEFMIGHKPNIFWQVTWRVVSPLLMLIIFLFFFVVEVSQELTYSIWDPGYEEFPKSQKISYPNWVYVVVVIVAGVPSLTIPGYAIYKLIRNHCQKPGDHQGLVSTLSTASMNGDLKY
Sequence (Q9HBJ8 15-222 partner): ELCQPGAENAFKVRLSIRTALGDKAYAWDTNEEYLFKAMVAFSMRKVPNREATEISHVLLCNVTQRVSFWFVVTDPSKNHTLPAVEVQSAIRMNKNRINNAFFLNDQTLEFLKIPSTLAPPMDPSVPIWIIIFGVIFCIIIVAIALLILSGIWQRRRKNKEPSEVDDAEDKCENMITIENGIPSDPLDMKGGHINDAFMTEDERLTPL
Experiment: Radioactive flux assay (radiolabelled leucine/isoleucine uptake) in CHO-BC cells
Assay type: cell-based
Conditions: 150 μM [14C]leucine or [14C]isoleucine, 6 min, 37°C
reported-property: IC50
Answer by giving the amount and then stating its unit.

Problem: Form: Entry = Cc1ccc(C(CCCN2CCCCC2)c2ccc3c(c2)OCO3)cc1 (centres unmarked) | System = B^0AT1 (Homo sapiens) | IC50 = ____
Result: 8 µM

Problem: And the next one, COc1ccc(C(CCCN2CCCCC2)c2ccc(C)cc2)cc1 (centres unmarked) ?
Result: 39 µM

Problem: And the next one, Cc1cc(OCC(=O)NC(C)C)cc(C)c1Cl ?
Result: 7.7 µM

Problem: And the next one, Cc1ccc(C(CCCN2CCOCC2)c2ccc3c(c2)OCO3)cc1 (centres unmarked) ?
Result: 19 µM

Problem: And the next one, COc1ccc(C(CCCN2CCOCC2)c2ccc(C)cc2)cc1 (centres unmarked) ?
Result: 16 µM

Problem: And the next one, COc1ccc(C(CCCN2CCOCC2)c2ccc(F)cc2)cc1 (centres unmarked) ?
Result: 19 µM

Problem: And the next one, COc1ccc(C(CCCN2CCCCC2)c2ccc(F)cc2)cc1 (centres unmarked) ?
Result: 46 µM

Problem: And the next one, COc1ccc(C(CCCN2CCCCC2)c2ccc3c(c2)OCO3)cc1 (centres unmarked) ?
Result: 25 µM

Problem: And the next one, Cc1cc(C(=O)Nc2ccc(Cl)cc2C(F)(F)F)no1 ?
Result: 4.9 µM

Problem: And the next one, COc1ccc(C(CCCN2CCCCC2)c2ccccc2)cc1 (centres unmarked) ?
Result: 8 µM

Problem: And the next one, COc1ccc(C(CCCN2CCOCC2)c2ccccc2)cc1 (centres unmarked) ?
Result: 17 µM

###

Target: B^0AT1 (Homo sapiens)
Construct: expressed in transfected cells
Test: Membrane potential detecting FLIPR assay in CHO-BC cells
Type: cell-based
Details: 30 min pre-incubation, leucine or isoleucine 1.5 mM
For each record, write down the corresponding log10(IC50).
// do not treat as linear: log10 of IC50, unit µM

Problem: Form: Entry = COc1ccc(C(CCCN2CCCCC2)c2ccc3c(c2)OCO3)cc1 (stereo not shown) [Compound E-90] | System = B^0AT1 (Homo sapiens) | log10(IC50) = ____
Result: 1.87

Problem: And the next one, COc1ccc(C(CCCN2CCOCC2)c2ccccc2)cc1 (stereo not shown) [Compound E-47] ?
Result: 1.32

Problem: And the next one, CCNC(=O)/C=C/c1cccc(Br)c1 [Cinromide, cinromide, reference compound] ?
Result: -0.30

Problem: And the next one, CN1[C@@H]2CC[C@H]1C[C@@H](OC(c1ccccc1)c1ccccc1)C2 [Benztropin, benztropine, reference compound] ?
Result: 1.64

Problem: And the next one, COc1ccc(C(CCCN2CCOCC2)c2ccc(F)cc2)cc1 (stereo not shown) [Compound E-68] ?
Result: 1.52

Problem: And the next one, COc1ccc(C(CCCN2CCOCC2)c2ccc(C)cc2)cc1 (stereo not shown) [Compound E-62] ?
Result: 1.30

Problem: And the next one, COc1ccc(C(CCCN2CCOCC2)c2ccc3c(c2)OCO3)cc1 (stereo not shown) [Compound E-89] ?
Result: 1.59

Problem: And the next one, Cc1cc(OCC(=O)NC(C)C)cc(C)c1Cl [Compound E4] ?
Result: 1.14

Problem: And the next one, COc1ccc(C(CCCN2CCCCC2)c2ccccc2)cc1 (stereo not shown) [Compound E-53] ?
Result: 1.49

Problem: And the next one, Cc1cc(C(=O)Nc2ccc(Cl)cc2C(F)(F)F)no1 [CB3] ?
Result: 0.28

Problem: And the next one, c1ccc(CCCN2CCCCC2Cc2ccccc2)cc1 (stereo not shown) [NSC22789, reference compound] ?
Result: 1.95

Problem: And the next one, Cc1ccc(C(CCCN2CCOCC2)c2ccc3c(c2)OCO3)cc1 (stereo not shown) [Compound E-84] ?
Result: 1.49

Problem: And the next one, COc1ccc(C(CCCN2CCCCC2)c2ccc(F)cc2)cc1 (stereo not shown) [Compound E-69] ?
Result: 1.97

Problem: And the next one, COc1ccccc1Nc1nc2ccccc2s1 [Compound E18] ?
Result: 0.62

Problem: And the next one, Cc1ccc(C(CCCN2CCCCC2)c2ccc3c(c2)OCO3)cc1 (stereo not shown) [Compound E-85] ?
Result: 1.56

Problem: And the next one, COc1ccc(C(CCCN2CCCCC2)c2ccc(C)cc2)cc1 (stereo not shown) [Compound E-63] ?
Result: 1.51

Origin of values: paper PMC7059793
